# TEST SUMMARY: Inhibitory activity tested against Human Cathepsin K receptor using bone resorption assay
MEASURED PROPERTY: IC50 (nM)
Answers are plain numbers, in nM.

Look up IC50: N#CN1CCC(NC(=O)OCc2ccccc2)C1 (stereo unspecified)
1410
